Biological target: Luciferin 4-monooxygenase (Photinus pyralis)
Experiment: inhibition of purified Photinus pyralis luciferase – biochemical, luminescence, purified enzyme, 2006 set, primary screen (AID 1141);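 also: cell-free assay with purified firefly luciferase at 100 ng per well in PBS; test concentration not given here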
Settings: purified firefly luciferase, SteadyGlo luminescence, 30 min; higher = more signal, called active from +8 up or from −8 down
Active and inactive are the calls of the source.
measurement-label: z-score

Look over these answered cases.
O=C(N1CCCCC1)[C@]1(CCS(=O)(=O)c2ccccc2)N=C(c2ccc(OCCCO)cc2)O[C@@H]1c1ccccc1 :: -0.149 (inactive)
O=c1cccc(-c2cccc3ccccc23)o1 :: 1.52 (inactive)
CCCCCCCCCCC(O)C1C=CC2C(=O)N(c3ccccc3)C(=O)C2N1Nc1ccc([N+](=O)[O-])cc1 (stereo not given) :: 1.86 (inactive)
O=C1OCCC=C[C@H]2OC34C=CCN(c5ccc6ccccc6c5)C(=O)[C@H]3N(CCCCCCO)C(=O)[C@@H]4C12 (stereo not given in full) :: -1.2 (inactive)

Then there is this molecule:
Q: Determine its reported z-score: NC(=O)NCC#Cc1ccc2c(c1)[C@]1(C(=O)N2)[C@H](c2ccc(O)cc2)N2[C@H](c3ccccc3)[C@H](c3ccccc3)OC(=O)[C@H]2[C@@H]1C(=O)N1CCN(c2ncccn2)CC1
Result: -1.43 (inactive)

* * *

Molecular target: Focal adhesion kinase 1 (Homo sapiens) (UniProt Q05397)
Sequence (Q05397 whole entry, looked up): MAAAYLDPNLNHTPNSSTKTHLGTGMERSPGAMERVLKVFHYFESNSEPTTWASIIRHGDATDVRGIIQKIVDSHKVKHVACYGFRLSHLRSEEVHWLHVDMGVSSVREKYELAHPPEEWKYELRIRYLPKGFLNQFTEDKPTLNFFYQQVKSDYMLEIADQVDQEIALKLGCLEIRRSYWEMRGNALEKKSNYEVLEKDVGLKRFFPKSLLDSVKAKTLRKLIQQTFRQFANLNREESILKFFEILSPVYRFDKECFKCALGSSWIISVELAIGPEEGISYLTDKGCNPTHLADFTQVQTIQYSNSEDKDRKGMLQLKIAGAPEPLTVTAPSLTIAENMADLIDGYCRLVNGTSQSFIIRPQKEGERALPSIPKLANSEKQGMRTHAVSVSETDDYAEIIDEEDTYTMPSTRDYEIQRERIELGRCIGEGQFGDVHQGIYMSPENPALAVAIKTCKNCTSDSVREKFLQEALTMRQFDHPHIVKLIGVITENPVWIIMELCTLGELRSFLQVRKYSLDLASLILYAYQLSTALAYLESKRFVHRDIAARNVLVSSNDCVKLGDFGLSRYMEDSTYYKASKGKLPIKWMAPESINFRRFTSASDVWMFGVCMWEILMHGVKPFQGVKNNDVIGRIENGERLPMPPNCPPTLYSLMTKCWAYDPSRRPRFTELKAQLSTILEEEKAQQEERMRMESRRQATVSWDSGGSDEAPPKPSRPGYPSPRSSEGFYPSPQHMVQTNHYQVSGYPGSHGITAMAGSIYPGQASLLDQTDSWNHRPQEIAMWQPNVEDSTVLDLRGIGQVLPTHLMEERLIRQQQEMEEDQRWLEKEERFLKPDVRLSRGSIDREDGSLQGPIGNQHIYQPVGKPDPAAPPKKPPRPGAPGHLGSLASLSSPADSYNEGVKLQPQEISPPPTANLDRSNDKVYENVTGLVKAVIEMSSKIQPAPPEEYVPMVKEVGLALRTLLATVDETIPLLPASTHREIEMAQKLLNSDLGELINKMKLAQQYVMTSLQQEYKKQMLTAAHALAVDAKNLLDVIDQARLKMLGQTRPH
Assay: PTK2 protein binding on printed compound slides – biochemical, small-molecule microarray, 635/667 nm fluorescence, BSA, DTT, primary screen (AID 1130);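 also: composite of spot emission at 667 nm and signal to noise over triplicate slides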
Settings: 635 nm fluorescence, higher = more signal
In this section we review reported composite z-score values for a set of compounds.

Here is how some compounds turned out for composite z-score.
C=C(CCCC)C(=O)CC[C@H](OC(=O)c1ccccc1-c1ccccc1C(=O)O)c1ccc(CO)o1 :: -0.116
COc1ccc([Si](C)(C)[C@H]2[C@H](CC(=O)N3CCC[C@H]3CO)O[C@@]3(C(=O)N(c4ccccc4)c4ccccc43)[C@@H]2C)cc1 :: 0.223
C=C(C(=O)CC[C@@H](OC(=O)c1cccnc1)c1ccc(OCCO)cc1)C(C)C :: -0.17
C=CCN1C(=O)[C@@]2(O[C@@H](CCO)[C@H]([Si](C)(C)c3ccc(OC)cc3)[C@H]2C)c2cc(NC(C)=O)ccc21 :: 0.0016
O=C1C2C=CC(C(O)c3ccc(-c4ccccc4)s3)N(Nc3ccccc3F)C2C(=O)N1c1ccccc1 (stereo not drawn) :: 0.816
C=C(CCCC)/C(=C/C[C@H](OC(C)=O)c1ccc(CO)o1)c1cc(C(=O)OC)ccc1OC :: 0.0945
CCCCC(=O)N(Cc1ccccc1F)[C@@H]1CC(C(=O)NCCO)=C[C@H](Oc2c(I)cc(CO)cc2OC)[C@H]1O :: 1.38
C=C(C(=O)CC[C@@H](OC(C)=O)c1ccc(OCCO)cc1)C(C)C :: 0.019

Q: Name the recorded composite z-score of the compound listed here: O=C1O[C@@H](c2ccccc2)[C@@H](c2ccccc2)N2[C@@H](c3ccc(O)cc3)[C@]3(C(=O)Nc4ccc(C#CCCO)cc43)[C@@H](C(=O)O)[C@H]12
Result: 0.894

Q: Recall and state the measured composite z-score for O=C(NCc1ccccc1)[C@@H]1c2ccccc2C(=O)N(C2CCCCC2)[C@H]1c1ccc(CO)cc1 .
Result: 0.405

Q: Hello, please tell me recorded composite z-score for this one: O=c1cccc(-c2ccc3ccccc3c2)o1
Result: -0.179

Q: Give the value of composite z-score reported for the following: C=CCOC(=O)[C@@H]1[C@H]2C(=O)O[C@H](c3ccccc3)[C@H](c3ccccc3)N2[C@H](c2ccc(OCCOC(=O)[C@H]3C[C@H]4C(=O)N[C@@H](CC(C)C)C(=O)N4[C@H]3c3cccc(OCCO)c3)cc2)[C@@]12C(=O)Nc1ccc(I)cc12
Result: 0.844

Q: Please supply the value of reported composite z-score for the item CN1C(=O)C2C=CC(C(O)C(c3ccccc3)c3ccccc3)N(Nc3ccccc3)C2C1=O (stereo not drawn)
Result: 0.668

Q: Report composite z-score for O=C(CS)NCCCCCNC(=O)[C@H]1C[C@H]2C(=O)N[C@@H](Cc3ccccc3)C(=O)N2[C@H]1c1cccc(OCCO)c1
Result: 0.181

Q: For Cc1ccc(S(=O)(=O)N2CC(C(=O)O)=CCC2c2ccccc2)cc1 (stereo not drawn) , write its composite z-score.
Result: 0.223

The measurements presented in this section are drawn from PubChem BioAssay.
